Attribution: paper PMC7269337

- measurement.target: TbTR (Trypanosoma brucei brucei, UniProt P39051)
- Construct: the gene coding for the enzyme (aa 1–492) was codon optimized for the expression in E.coli; made in house; host or cells: E. coli BL21(DE3)
- Sequence (P39051 whole entry, the tested form may be a part): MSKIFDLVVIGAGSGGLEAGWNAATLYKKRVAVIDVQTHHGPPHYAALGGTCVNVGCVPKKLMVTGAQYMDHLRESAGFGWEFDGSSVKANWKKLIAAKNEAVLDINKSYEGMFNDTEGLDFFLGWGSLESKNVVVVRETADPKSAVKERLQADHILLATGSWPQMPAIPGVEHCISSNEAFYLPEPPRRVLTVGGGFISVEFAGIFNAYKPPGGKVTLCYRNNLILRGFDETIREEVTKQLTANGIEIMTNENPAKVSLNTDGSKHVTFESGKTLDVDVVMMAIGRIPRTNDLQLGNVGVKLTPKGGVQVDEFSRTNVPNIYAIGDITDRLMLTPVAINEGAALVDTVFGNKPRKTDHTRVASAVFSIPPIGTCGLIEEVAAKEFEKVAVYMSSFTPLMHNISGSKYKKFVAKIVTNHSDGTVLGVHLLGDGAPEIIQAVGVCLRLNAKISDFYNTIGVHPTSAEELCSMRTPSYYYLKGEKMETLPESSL
- experiment: TbTR DTNB absorbance assay
- Assay type: biochemical
endpoint.name: IC50 (nM)
State just the number; it will be interpreted in nM.

The value of IC50 measured for the compound CN(CCCN1CN(c2ccccc2)C2(CCN(CC[C@@H]3CC[C@H]4C[C@@H]3C4(C)C)CC2)C1=O)CC1(O)CCN(C(=N)N)CC1 turned out to be 966

---

- measurement.target: TbTR (Trypanosoma brucei trypanothione reductase) (Trypanosoma brucei brucei)
- Construct: the gene coding for the enzyme (aa 1–492) was codon optimized for the expression in E.coli; made in house; host or cells: E. coli BL21(DE3)
- Sequence (P39051 whole entry, the tested form may be a part): as above
- experiment: TbTR luminescent (NADPH-Glo) enzyme assay
- Assay type: biochemical
- condition.notes: luminescence assay, n=4, dose-response from 85 μM; read-out: TbTR assay IC50
- Procedure: Compounds from 10 mM stock solutions were transferred to assay plates by acoustic transfer (EDC Biosystems, Milmont, CA). The TbTR luminescent assay was performed in 384-well white plate (Greiner Bio One, Frickenhausen, Germany). […] After 60 min of incubation at room temperature the residual amount of NADPH was measured by addition of an equal volume of NADPH-Glo as per the manufacturer’s protocol and the luminescent signal was acquired by an EnVision plate reader (PerkinElmer, Waltham, MA). […]
pIC50: −log10 of the molar value.
endpoint.name: pIC50

The value of pIC50 measured for the compound O=C(CCCN1CCC2(CC1)C(=O)NCN2c1ccccc1)c1ccc(F)cc1 [Compound 5, Spiperone, reference compound] turned out to be < 4.07
